ASSAY SYSTEM: proMMP9(20-445;ΔFnII) (SEQ ID NO:6) (Homo sapiens, UniProt P14780, DEL216-390)
Construct: start methionine (N)
Sequence (P14780 with tags, fused parts or gaps DEL216-390): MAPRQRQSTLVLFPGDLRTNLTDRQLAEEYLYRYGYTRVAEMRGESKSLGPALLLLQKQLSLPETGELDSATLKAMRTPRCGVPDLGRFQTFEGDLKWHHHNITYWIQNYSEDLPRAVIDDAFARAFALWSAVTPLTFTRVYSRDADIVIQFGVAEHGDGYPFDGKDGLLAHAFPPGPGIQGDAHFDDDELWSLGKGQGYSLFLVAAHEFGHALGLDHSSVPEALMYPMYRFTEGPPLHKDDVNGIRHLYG
METHOD SUMMARY: ThermoFluor binding assay with proMMP9(20-445;ΔFnII)
MEASUREMENT CONDITIONS: pH 7.0
pKd: −log10 of the molar value.
REPORTED ENDPOINT: pKd

Recorded pKd, per entry:
SMILES DATA: CC(=O)Nc1nc(C)c(-c2csc(Nc3cc(C#N)ccc3OC(C)C)n2)s1
pKd: 5.37
//
SMILES DATA: Cc1nc(C)c(-c2csc(Nc3cc(C(N)=O)ccc3OC3CCCC3)n2)s1
pKd: 5.10
//
SMILES DATA: Cc1nc(C)c(-c2csc(Nc3cc(C(N)=O)ccc3CC(C)C)n2)s1
pKd: 6.26
//
SMILES DATA: CCOc1ccc(C(N)=O)cc1Nc1nc(-c2sc(C)nc2C)cs1
pKd: 6.70

(P) CCN(CC)S(=O)(=O)c1ccc(OC)c(Nc2nc(-c3sc(NC(C)=O)nc3C)cs2)c1
(Q) CCN1CCCN(C(=O)c2nc(C)c(-c3csc(Nc4cc(C(N)=O)ccc4OC(C)C)n3)s2)CC1
q: Between the two listed entries P and Q , which has its pKd at the higher number? // output: label of the selected item
a: Q
